# System: CAL-120, human breast adenocarcinoma cells
# assayRemarks: Proliferation assay CAL-120 (crystal violet, 4 days)
# Format: cell-based
# measurementParameters: Homo sapiens, CAL-120, 96 h, CAL-120 cells, median, read-out: Prolif-CAL-120, IC50-[mol/l] (median)
pIC50: −log10 of the molar value.

[
  {
    "chemicalSmiles": "Brc1cnn2c(NCc3nc4ccccc4[nH]3)nc(N3CCNC4(CC4)C3)nc12",
    "pIC50": 8.36
  },
  {
    "chemicalSmiles": "Brc1cnn2c(NCc3nc4ccccc4[nH]3)nc(OC3CCNCC3)nc12",
    "pIC50": 7.10
  },
  {
    "chemicalSmiles": "Cc1ccc2[nH]c(CNc3nc(N4C[C@@H](C)N[C@@H](C)C4)nc4c(Br)cnn34)nc2c1",
    "pIC50": 8.89
  },
  {
    "chemicalSmiles": "Fc1cccc2[nH]c(CNc3nc(N4CCNCC4)nc4c(C5CC5)cnn34)nc12",
    "pIC50": 8.43
  },
  {
    "chemicalSmiles": "CN(C)CCOc1nc(NCc2nc3ccccc3[nH]2)n2ncc(Br)c2n1",
    "pIC50": 7.08
  },
  {
    "chemicalSmiles": "CC(C)(O)CNc1nc(NCc2nc3ccccc3[nH]2)n2ncc(Br)c2n1",
    "pIC50": 7.40
  },
  {
    "chemicalSmiles": "C[C@@H]1CN(c2nc(NCc3nc4c(F)cccc4[nH]3)n3ncc(Br)c3n2)C[C@H](C)O1",
    "pIC50": 8.31
  },
  {
    "chemicalSmiles": "CCc1cnn2c(NCc3nc4c(F)c(F)ccc4[nH]3)nc(N3CCOCC3)nc12",
    "pIC50": 8.44
  }
]
